- TARGET_SYSTEM: human β2-adrenoreceptor (Homo sapiens)
- Construct: expressed in transfected cells; host or cells: CHO cells
- Sequence (P07550 whole entry): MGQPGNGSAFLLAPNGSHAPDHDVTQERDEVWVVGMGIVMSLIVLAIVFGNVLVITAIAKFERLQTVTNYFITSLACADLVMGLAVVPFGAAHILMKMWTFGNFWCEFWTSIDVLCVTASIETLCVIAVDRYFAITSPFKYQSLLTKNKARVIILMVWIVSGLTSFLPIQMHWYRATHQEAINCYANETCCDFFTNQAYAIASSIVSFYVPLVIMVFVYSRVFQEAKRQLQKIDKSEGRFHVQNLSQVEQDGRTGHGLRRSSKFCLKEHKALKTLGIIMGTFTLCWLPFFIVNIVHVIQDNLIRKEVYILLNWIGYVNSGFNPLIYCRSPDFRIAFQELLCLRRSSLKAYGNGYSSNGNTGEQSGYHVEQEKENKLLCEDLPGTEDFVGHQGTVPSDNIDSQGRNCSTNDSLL
- ASSAY_COMMENT: cAMP radioimmunoassay in CHO cells expressing human β2-adrenoreceptor
- Format: cell-based
- COND: maximal response relative to standard reference agonist (isoproterenol = 100%), na = not active, read-out: h-β2 cAMP Max %
Hi, to clarify the labels: Satisfied covers Emax from 8% upward, Not satisfied covers anything below 8%.

Q: Could you verify whether the entry COc1c(I)cc(CC2NCCc3cc(O)c(NS(C)(=O)=O)cc32)cc1I (centres unmarked) shows Emax of no less than 8%?
Ans: Not satisfied

Q: For COc1c(Br)cc(CC2NCCc3cc(O)c(N(S(=O)(=O)c4ccc(F)cc4)S(=O)(=O)c4ccc(F)cc4)cc32)cc1Br (centres unmarked) then?
Ans: Not satisfied

Q: For COc1c(Br)cc(CC2c3cc(NS(C)(=O)=O)c(O)cc3CCN2C)cc1Br (centres unmarked) then?
Ans: Satisfied

Q: For COc1c(Br)cc(CC2NCCc3cc(O)c(NS(=O)(=O)c4ccc(C(F)(F)F)cc4)cc32)cc1Br (centres unmarked) then?
Ans: Satisfied

---
Q: Could you verify whether the entry COc1c(Br)cc(CC2NCCc3cc(O)c(NS(=O)(=O)c4ccccc4)cc32)cc1Br (centres unmarked) shows Emax of no less than 8%?
Ans: Satisfied

Q: For COc1ccc(CC2NCCc3cc(O)c(NS(C)(=O)=O)cc32)cc1OC (centres unmarked) then?
Ans: Satisfied

Q: For CCOC(=O)Nc1cc2c(cc1NS(C)(=O)=O)CCNC2Cc1cc(Br)c(OC)c(Br)c1 (centres unmarked) then?
Ans: Satisfied

Q: For COc1c(Br)cc(CC2NCCc3cc(O)c(NS(=O)(=O)c4ccc(F)cc4)cc32)cc1Br (centres unmarked) then?
Ans: Satisfied

Q: For CS(=O)(=O)Nc1cc2c(cc1N)CCNC2Cc1ccc(Cl)c(Cl)c1 (centres unmarked) then?
Ans: Satisfied

* * *

- TARGET_SYSTEM: human β3-adrenoreceptor (Homo sapiens, UniProt P13945)
- Construct: expressed in transfected cells; host or cells: CHO cells
- Sequence (P13945 whole entry): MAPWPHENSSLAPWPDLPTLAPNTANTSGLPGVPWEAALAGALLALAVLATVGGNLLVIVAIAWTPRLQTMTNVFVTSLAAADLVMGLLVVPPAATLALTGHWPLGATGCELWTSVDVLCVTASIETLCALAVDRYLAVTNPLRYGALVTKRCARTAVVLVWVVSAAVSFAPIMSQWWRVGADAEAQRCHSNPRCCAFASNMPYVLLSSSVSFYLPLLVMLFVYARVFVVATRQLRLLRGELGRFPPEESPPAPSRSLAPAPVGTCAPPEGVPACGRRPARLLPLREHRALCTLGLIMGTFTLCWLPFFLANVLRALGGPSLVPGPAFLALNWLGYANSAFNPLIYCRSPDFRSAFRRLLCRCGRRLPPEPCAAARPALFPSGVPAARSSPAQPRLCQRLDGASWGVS
- ASSAY_COMMENT: cAMP radioimmunoassay in CHO cells expressing human β3-adrenoreceptor
- Format: cell-based
- COND: maximal response relative to standard reference agonist (isoproterenol = 100%), na = not active, read-out: h-β3 cAMP Max %
RECORDED_METRIC: Emax (%)
Kindly answer with a numeric value in %, unit omitted.

Q: Name the recorded Emax for CS(=O)(=O)Nc1cc2c(cc1O)CCNC2Cc1ccc(Cl)c(Cl)c1 (centres unmarked) .
Ans: 92

---
Q: Name the recorded Emax for CS(=O)(=O)Nc1cc2c(cc1O)CCNC2Cc1cc(F)cc(F)c1 (centres unmarked) .
Ans: 66.6

Q: For COc1c(Br)cc(CC2NCCc3cc(O)c(NS(=O)(=O)c4ccc(OC(F)(F)F)cc4)cc32)cc1Br (centres unmarked) then?
Ans: 65.7

Q: For COc1c(Br)cc(CC2NCCc3cc(O)c(NS(=O)(=O)c4ccc(C(F)(F)F)cc4)cc32)cc1Br (centres unmarked) then?
Ans: 83.3

* * *

- TARGET_SYSTEM: human β3-adrenoreceptor (Homo sapiens)
- Construct: expressed in transfected cells; host or cells: CHO cells
- ASSAY_COMMENT: cAMP radioimmunoassay in CHO cells expressing human β3-adrenoreceptor
- Type: cell-based
- COND: maximal response relative to standard reference agonist (isoproterenol = 100%), na = not active, read-out: h-β3 cAMP Max %
Exam item: assign class 1 to entries whose Emax is below 90% and class 0 to entries at or above 90%. Note that a value of exactly 90% receives class 0.

Q: Please check: Emax for CCS(=O)(=O)Nc1cc2c(cc1O)CCNC2Cc1cc(Br)c(OC)c(Br)c1 (stereo not drawn) , strictly under 90% or not?
Ans: class 0

---
Q: Please check: Emax for COc1c(I)cc(CC2NCCc3cc(O)c(NS(C)(=O)=O)cc32)cc1I (stereo not drawn) , strictly under 90% or not?
Ans: class 0

Q: For COc1c(Br)cc(CC2c3cc(NS(C)(=O)=O)c(O)cc3CCN2C)cc1Br (stereo not drawn) then?
Ans: class 1

Q: For CCOC(=O)Nc1cc2c(cc1NS(C)(=O)=O)CCNC2Cc1cc(Br)c(OC)c(Br)c1 (stereo not drawn) then?
Ans: class 1

Q: For COc1c(Br)cc(CC2NCCc3cc(O)c(NS(=O)(=O)/C=C/c4ccccc4)cc32)cc1Br (stereo not drawn) then?
Ans: class 0

Q: For COc1c(Br)cc(CC2NCCc3cc(O)c(N(S(=O)(=O)c4ccc(F)cc4)S(=O)(=O)c4ccc(F)cc4)cc32)cc1Br (stereo not drawn) then?
Ans: class 1

* * *

- TARGET_SYSTEM: human β1-adrenoreceptor (Homo sapiens)
- Construct: expressed in transfected cells; host or cells: CHO cells
- Sequence (P08588 whole entry): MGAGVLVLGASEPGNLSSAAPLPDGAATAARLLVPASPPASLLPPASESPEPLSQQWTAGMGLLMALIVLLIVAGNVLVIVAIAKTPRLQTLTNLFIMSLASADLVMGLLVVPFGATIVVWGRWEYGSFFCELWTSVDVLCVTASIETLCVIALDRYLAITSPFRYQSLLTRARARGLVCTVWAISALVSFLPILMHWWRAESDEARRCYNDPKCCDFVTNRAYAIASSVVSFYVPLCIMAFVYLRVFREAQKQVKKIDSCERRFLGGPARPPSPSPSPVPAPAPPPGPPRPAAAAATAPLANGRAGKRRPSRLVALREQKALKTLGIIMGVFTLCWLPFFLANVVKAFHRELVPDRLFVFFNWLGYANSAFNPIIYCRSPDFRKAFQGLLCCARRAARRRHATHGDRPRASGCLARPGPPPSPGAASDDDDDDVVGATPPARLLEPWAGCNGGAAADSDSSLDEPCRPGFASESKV
- ASSAY_COMMENT: cAMP radioimmunoassay in CHO cells expressing human β1-adrenoreceptor
- Assay type: cell-based
- COND: maximal response relative to standard reference agonist (isoproterenol = 100%), na = not active, read-out: h-β1 cAMP Max %
Attribute: Emax
Provide a numeric answer, followed by its unit.

Answered cases to consult:
Q: State its Emax on human β1-adrenoreceptor (Homo sapiens): CCOC(=O)Nc1cc2c(cc1NS(C)(=O)=O)CCNC2Cc1cc(Br)c(OC)c(Br)c1 (stereo not shown)
Ans: 11%

Q: For COc1c(Br)cc(CC2NCCc3cc(O)c(NS(=O)(=O)c4ccc(F)cc4)cc32)cc1Br (stereo not shown) then?
Ans: 8.6%

Q: For COc1c(Br)cc(CC2NCCc3cc(O)c(NS(=O)(=O)c4ccc(C(F)(F)F)cc4)cc32)cc1Br (stereo not shown) then?
Ans: 13%

Q: For CS(=O)(=O)Nc1cc2c(cc1N)CCNC2Cc1ccc(Cl)c(Cl)c1 (stereo not shown) then?
Ans: 12.6%

---
Q: State its Emax on human β1-adrenoreceptor (Homo sapiens): COc1c(I)cc(CC2NCCc3cc(O)c(NS(=O)(=O)c4ccc(C)cc4)cc32)cc1I (stereo not shown)
Ans: 5%

Q: For COc1ccc(CC2NCCc3cc(O)c(NS(C)(=O)=O)cc32)cc1OC (stereo not shown) then?
Ans: 10.2%

Q: For COc1c(Br)cc(CC2NCCc3cc(O)c(N(S(=O)(=O)c4ccc(F)cc4)S(=O)(=O)c4ccc(F)cc4)cc32)cc1Br (stereo not shown) then?
Ans: 12.1%

* * *

- TARGET_SYSTEM: human β3-adrenoreceptor (Homo sapiens, UniProt P13945)
- ASSAY_COMMENT: cAMP radioimmunoassay in CHO cells expressing human β3-adrenoreceptor
- COND: concentration giving 50% of the drug's maximum cAMP response, na = not active at highest concentration used, read-out: h-β3 cAMP EC50
RECORDED_METRIC: pEC50
Scale: negative log10 of molar concentration, which is what pEC50 denotes.

Q: Name the recorded pEC50 for CS(=O)(=O)Nc1cc2c(cc1O)CCNC2Cc1cc(F)cc(F)c1 (stereo not drawn) .
Ans: 7.41

---
Q: Name the recorded pEC50 for COc1c(I)cc(CC2NCCc3cc(O)c(NS(C)(=O)=O)cc32)cc1I (stereo not drawn) .
Ans: 8.52

Q: For CS(=O)(=O)Nc1cc2c(cc1O)CCNC2Cc1ccc(Cl)c(Cl)c1 (stereo not drawn) then?
Ans: 8.00

Q: For COc1c(Br)cc(CC2NCCc3cc(O)c(NS(=O)(=O)Cc4ccccc4)cc32)cc1Br (stereo not drawn) then?
Ans: 7.68

Q: For COc1ccc(CC2NCCc3cc(O)c(NS(C)(=O)=O)cc32)cc1OC (stereo not drawn) then?
Ans: 6.93

Q: For COc1c(Br)cc(CC2NCCc3cc(O)c(NS(=O)(=O)/C=C/c4ccccc4)cc32)cc1Br (stereo not drawn) then?
Ans: 7.64

* * *

- TARGET_SYSTEM: human β1-adrenoreceptor (Homo sapiens)
- Construct: expressed in transfected cells; host or cells: CHO cells
- ASSAY_COMMENT: cAMP radioimmunoassay in CHO cells expressing human β1-adrenoreceptor
- Type: cell-based
- COND: maximal response relative to standard reference agonist (isoproterenol = 100%), na = not active, read-out: h-β1 cAMP Max %
RECORDED_METRIC: Emax (%)
Kindly answer with a numeric value in %, unit omitted.

Q: State its Emax on human β1-adrenoreceptor (Homo sapiens): COc1c(Br)cc(CC2c3cc(NS(C)(=O)=O)c(O)cc3CCN2C)cc1Br (centres unmarked)
Ans: 16.2

---
Q: State its Emax on human β1-adrenoreceptor (Homo sapiens): COc1c(Br)cc(CC2NCCc3cc(O)c(NS(=O)(=O)c4ccccc4)cc32)cc1Br (centres unmarked)
Ans: 13.1

Q: For CCS(=O)(=O)Nc1cc2c(cc1O)CCNC2Cc1cc(Br)c(OC)c(Br)c1 (centres unmarked) then?
Ans: 8.4

Q: For COc1c(I)cc(CC2NCCc3cc(O)c(NS(C)(=O)=O)cc32)cc1I (centres unmarked) then?
Ans: 5

Q: For COc1c(Br)cc(CC2NCCc3cc(O)c(NS(=O)(=O)c4ccc(C)cc4)cc32)cc1Br (centres unmarked) then?
Ans: 18.1
